assay: Apparent oral clearance in Wistar rat at 2 mg/kg, iv; format: ADME, organism-based; parameters: dose 2 mg/kg; settings: in vivo
reportedMetric: CL/F (mL/min/kg)

[[record]]
smilesrecord = "CCCCc1nc2cc(/C=C/C(=O)NO)ccc2n1CCN(CC)CC.Cl.Cl"
reportedmetric = "CL/F"
assayresult = 74.2


* * *

pKi: −log10 of the molar value.
Parameter pKi, tested on Histone deacetylase 5 (Homo sapiens), listed per item.
Sequence (Q9UQL6 whole entry): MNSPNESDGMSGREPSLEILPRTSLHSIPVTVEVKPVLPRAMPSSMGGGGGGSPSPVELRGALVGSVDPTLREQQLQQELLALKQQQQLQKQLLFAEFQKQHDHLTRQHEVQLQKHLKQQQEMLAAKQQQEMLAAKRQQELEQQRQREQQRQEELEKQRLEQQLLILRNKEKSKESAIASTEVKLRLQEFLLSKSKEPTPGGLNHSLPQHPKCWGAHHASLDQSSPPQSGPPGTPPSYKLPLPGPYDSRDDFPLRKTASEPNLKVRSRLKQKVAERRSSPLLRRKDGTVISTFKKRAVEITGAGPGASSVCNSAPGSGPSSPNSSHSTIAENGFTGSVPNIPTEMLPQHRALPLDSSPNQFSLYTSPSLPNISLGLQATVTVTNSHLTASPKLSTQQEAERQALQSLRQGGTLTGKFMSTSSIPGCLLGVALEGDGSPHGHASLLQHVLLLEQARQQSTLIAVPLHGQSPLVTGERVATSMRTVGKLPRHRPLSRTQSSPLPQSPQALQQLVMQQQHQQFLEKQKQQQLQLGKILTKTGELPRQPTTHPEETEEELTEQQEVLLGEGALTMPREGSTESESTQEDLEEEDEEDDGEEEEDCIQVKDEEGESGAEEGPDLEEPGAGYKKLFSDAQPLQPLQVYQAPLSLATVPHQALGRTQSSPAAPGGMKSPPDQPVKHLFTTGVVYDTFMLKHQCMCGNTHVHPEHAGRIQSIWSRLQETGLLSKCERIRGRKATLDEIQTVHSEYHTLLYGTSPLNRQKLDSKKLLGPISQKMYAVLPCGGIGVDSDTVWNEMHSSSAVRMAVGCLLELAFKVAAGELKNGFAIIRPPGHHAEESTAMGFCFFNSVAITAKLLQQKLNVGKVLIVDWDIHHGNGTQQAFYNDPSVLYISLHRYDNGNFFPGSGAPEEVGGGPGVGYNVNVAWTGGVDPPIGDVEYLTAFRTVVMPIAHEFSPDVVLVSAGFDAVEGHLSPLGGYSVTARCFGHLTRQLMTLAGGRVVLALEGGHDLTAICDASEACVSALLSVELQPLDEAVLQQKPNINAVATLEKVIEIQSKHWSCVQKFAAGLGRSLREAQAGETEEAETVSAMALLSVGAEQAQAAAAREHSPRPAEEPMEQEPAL
reportedMetric: pKi

[[record]]
smilesrecord = "CCCCc1nc2cc(/C=C/C(=O)NO)ccc2n1CCN(CC)CC.Cl.Cl"
reportedmetric = "pKi"
assayresult = 7.68

[[record]]
smilesrecord = "CN(C)CC(C)(C)Cn1c(CC(C)(C)C)nc2cc(/C=C/C(=O)NO)ccc21"
reportedmetric = "pKi"
assayresult = 7.96

[[record]]
smilesrecord = "CCCCc1nc2cc(/C=C/C(=O)NO)ccc2n1CCNC(C)C"
reportedmetric = "pKi"
assayresult = 7.96

[[record]]
smilesrecord = "O=C(/C=C/c1ccc2c(c1)nc(CCc1ccccc1)n2CCN1CCCCC1)NO"
reportedmetric = "pKi"
assayresult = 7.74

[[record]]
smilesrecord = "CCCCCCc1nc2cc(/C=C/C(=O)NO)ccc2n1CCN(C)C"
reportedmetric = "pKi"
assayresult = 8.04

[[record]]
smilesrecord = "CN(C)CC(C)(C)Cn1c(CCc2ccccc2)nc2cc(/C=C/C(=O)NO)ccc21"
reportedmetric = "pKi"
assayresult = 7.80

[[record]]
smilesrecord = "CCCCCCc1nc2cc(/C=C/C(=O)NO)ccc2n1CCNC(C)C"
reportedmetric = "pKi"
assayresult = 8.18

[[record]]
smilesrecord = "CCCCCCc1nc2cc(/C=C/C(=O)NO)ccc2n1CCNCC"
reportedmetric = "pKi"
assayresult = 8.17


* * *

Parameter IC50, tested on Cytochrome P450 2C19 (Homo sapiens), listed per item.
Sequence (P33261 whole entry): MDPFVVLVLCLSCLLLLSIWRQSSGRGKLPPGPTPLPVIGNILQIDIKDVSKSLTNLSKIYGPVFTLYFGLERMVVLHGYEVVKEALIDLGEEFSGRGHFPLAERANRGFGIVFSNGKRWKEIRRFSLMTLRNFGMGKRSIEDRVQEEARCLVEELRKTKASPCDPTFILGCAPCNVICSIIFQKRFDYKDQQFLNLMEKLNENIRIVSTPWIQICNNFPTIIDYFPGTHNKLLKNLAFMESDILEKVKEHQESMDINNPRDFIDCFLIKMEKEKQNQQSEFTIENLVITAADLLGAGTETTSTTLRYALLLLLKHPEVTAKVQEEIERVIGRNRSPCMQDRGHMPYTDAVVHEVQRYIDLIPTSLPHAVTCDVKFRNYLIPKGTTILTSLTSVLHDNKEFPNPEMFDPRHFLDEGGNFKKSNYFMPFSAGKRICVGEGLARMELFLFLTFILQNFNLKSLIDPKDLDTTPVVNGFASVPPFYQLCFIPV
reportedMetric: IC50 (µM)

[[record]]
smilesrecord = "CCCCCCc1nc2cc(/C=C/C(=O)NO)ccc2n1CCN(C)C"
assayedtarget = "Cytochrome P450 2C19 (Homo sapiens)"
reportedmetric = "IC50"
assayresult = 10.3

[[record]]
smilesrecord = "CN(C)CC(C)(C)Cn1c(CC(C)(C)C)nc2cc(/C=C/C(=O)NO)ccc21"
assayedtarget = "Cytochrome P450 2C19 (Homo sapiens)"
reportedmetric = "IC50"
assayresult = 8.1

[[record]]
smilesrecord = "CCCCc1nc2cc(/C=C/C(=O)NO)ccc2n1CCN(CC)CC.Cl.Cl"
assayedtarget = "Cytochrome P450 2C19 (Homo sapiens)"
reportedmetric = "IC50"
assayresult = 5.78


* * *

experiment: Solubility of the compound in 1% methylcellulose/0.1% Tween 80; format: physicochemical
reportedMetric: solubility

[[record]]
smilesrecord = "CCCCc1nc2cc(/C=C/C(=O)NO)ccc2n1CCN(CC)CC.Cl.Cl"
reportedmetric = "solubility"
assayresult = "> 25 mg/mL"


* * *

Quick reference for half-life among some compounds
test: Half life in rat liver microsomes; assay type: ADME, Microsome
reportedMetric: half-life (min)

[[record]]
compound = "Cl.O=C(/C=C/c1ccc2c(c1)nc(CCc1ccccc1)n2CCN1CCCC1)NO"
reportedmetric = "half-life"
censoringqualifier = "="
assayresult = 4.3

[[record]]
compound = "CCCCCCc1nc2cc(/C=C/C(=O)NO)ccc2n1CCN(C)C.Cl.Cl"
reportedmetric = "half-life"
censoringqualifier = "="
assayresult = 10

[[record]]
compound = "CN(C)CC(C)(C)Cn1c(CC(C)(C)C)nc2cc(/C=C/C(=O)NO)ccc21.Cl.Cl"
reportedmetric = "half-life"
censoringqualifier = "="
assayresult = 41

[[record]]
compound = "CCCCc1nc2cc(/C=C/C(=O)NO)ccc2n1CCNC(C)C.Cl.Cl"
reportedmetric = "half-life"
censoringqualifier = "="
assayresult = 3.3

[[record]]
compound = "O=C(CCCCCCC(=O)Nc1ccccc1)NO [VORINOSTAT]"
reportedmetric = "half-life"
censoringqualifier = ">"
assayresult = 60


* * *

Molecular target: Protein deacetylase HDAC6 (Homo sapiens, UniProt Q9UBN7)
Sequence (Q9UBN7 whole entry): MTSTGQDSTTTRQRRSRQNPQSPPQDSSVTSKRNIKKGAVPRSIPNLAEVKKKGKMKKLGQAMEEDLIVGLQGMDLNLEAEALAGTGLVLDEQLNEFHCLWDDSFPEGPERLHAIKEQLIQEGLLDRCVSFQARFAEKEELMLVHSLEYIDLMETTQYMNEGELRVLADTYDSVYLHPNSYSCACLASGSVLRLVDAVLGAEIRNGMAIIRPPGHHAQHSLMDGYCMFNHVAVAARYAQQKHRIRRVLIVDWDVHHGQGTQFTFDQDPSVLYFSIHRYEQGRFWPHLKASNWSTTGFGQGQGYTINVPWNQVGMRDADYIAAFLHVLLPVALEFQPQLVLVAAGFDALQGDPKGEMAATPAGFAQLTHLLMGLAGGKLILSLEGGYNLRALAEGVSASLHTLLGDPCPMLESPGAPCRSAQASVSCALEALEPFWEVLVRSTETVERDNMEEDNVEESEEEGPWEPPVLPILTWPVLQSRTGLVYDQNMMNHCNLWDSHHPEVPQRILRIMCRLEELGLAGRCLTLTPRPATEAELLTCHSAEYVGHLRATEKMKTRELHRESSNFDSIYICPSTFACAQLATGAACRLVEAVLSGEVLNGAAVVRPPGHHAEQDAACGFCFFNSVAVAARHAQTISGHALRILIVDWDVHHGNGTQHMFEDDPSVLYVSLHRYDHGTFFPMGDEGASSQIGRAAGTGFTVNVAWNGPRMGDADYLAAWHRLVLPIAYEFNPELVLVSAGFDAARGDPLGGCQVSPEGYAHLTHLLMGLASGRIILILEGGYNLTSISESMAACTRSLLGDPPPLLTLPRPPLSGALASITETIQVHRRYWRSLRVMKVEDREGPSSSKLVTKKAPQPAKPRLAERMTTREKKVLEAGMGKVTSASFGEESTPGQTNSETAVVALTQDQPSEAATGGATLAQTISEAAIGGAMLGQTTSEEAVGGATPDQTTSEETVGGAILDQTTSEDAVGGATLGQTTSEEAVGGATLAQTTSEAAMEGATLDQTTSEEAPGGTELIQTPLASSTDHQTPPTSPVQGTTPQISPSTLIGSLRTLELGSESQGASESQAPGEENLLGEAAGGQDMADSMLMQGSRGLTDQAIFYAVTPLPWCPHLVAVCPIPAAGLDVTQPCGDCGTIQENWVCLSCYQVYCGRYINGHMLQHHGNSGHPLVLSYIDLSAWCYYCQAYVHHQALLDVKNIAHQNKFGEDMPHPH
pKi: −log10 of the molar value.
reportedMetric: pKi

[[record]]
compound = "CCCCc1nc2cc(/C=C/C(=O)NO)ccc2n1CCN(CC)CC.Cl.Cl"
assayresult = 6.61

[[record]]
compound = "O=C(/C=C/c1cccc(S(=O)(=O)Nc2ccccc2)c1)NO [BELINOSTAT]"
assayresult = 8.00

[[record]]
compound = "CC/C=C\\CCc1nc2cc(/C=C/C(=O)NO)ccc2n1CCNCC"
assayresult = 8.40

[[record]]
compound = "CN(C)CC(C)(C)Cn1c(CCc2ccccc2)nc2cc(/C=C/C(=O)NO)ccc21"
assayresult = 7.64

[[record]]
compound = "CCCCc1nc2cc(/C=C/C(=O)NO)ccc2n1CCNC(C)C"
assayresult = 6.65

[[record]]
compound = "CCCCCCc1nc2cc(/C=C/C(=O)NO)ccc2n1CCN(C)C"
assayresult = 6.52

[[record]]
compound = "CCCCCCc1nc2cc(/C=C/C(=O)NO)ccc2n1CCNCC"
assayresult = 6.55

[[record]]
compound = "O=C(/C=C/c1ccc2c(c1)nc(CCc1ccccc1)n2CCN1CCCCC1)NO"
assayresult = 7.57

[[record]]
compound = "CN(C)CC(C)(C)Cn1c(CC(C)(C)C)nc2cc(/C=C/C(=O)NO)ccc21"
assayresult = 7.03

[[record]]
compound = "CCCCCc1nc2cc(/C=C/C(=O)NO)ccc2n1CCNC(C)C"
assayresult = 6.64


* * *

assay: Half life in human liver microsomes; assay type: ADME, Microsome
reportedMetric: half-life

[[record]]
smilesrecord = "O=C(CCCCCCC(=O)Nc1ccccc1)NO"
assayresult = "> 1 h"

[[record]]
smilesrecord = "CCCCc1nc2cc(/C=C/C(=O)NO)ccc2n1CCN(CC)CC.Cl.Cl"
assayresult = "> 1 h"

[[record]]
smilesrecord = "CN(C)CC(C)(C)Cn1c(CC(C)(C)C)nc2cc(/C=C/C(=O)NO)ccc21.Cl.Cl"
assayresult = "> 1 h"

[[record]]
smilesrecord = "Cl.O=C(/C=C/c1ccc2c(c1)nc(CCc1ccccc1)n2CCN1CCCC1)NO"
assayresult = "1 h"

[[record]]
smilesrecord = "O=C(/C=C/c1ccc2c(c1)nc(CCc1ccccc1)n2CCN1CCCC1)NO"
assayresult = "≥ 0.5 h"

[[record]]
smilesrecord = "CCN(CC)CCn1c(CCc2ccccc2)nc2cc(/C=C/C(=O)NO)ccc21"
assayresult = "≥ 0.5 h"

[[record]]
smilesrecord = "CCCCCCc1nc2cc(/C=C/C(=O)NO)ccc2n1CCNCC.Cl.Cl"
assayresult = "0.85 h"

[[record]]
smilesrecord = "CN(C)CC(C)(C)Cn1c(CCc2ccccc2)nc2cc(/C=C/C(=O)NO)ccc21"
assayresult = "1 h"

[[record]]
smilesrecord = "CCCCCCc1nc2cc(/C=C/C(=O)NO)ccc2n1CCN(C)C.Cl.Cl"
assayresult = "> 1 h"

[[record]]
smilesrecord = "CCCCc1nc2cc(/C=C/C(=O)NO)ccc2n1CCNC(C)C.Cl.Cl"
assayresult = "> 1 h"

[[record]]
smilesrecord = "O=C(/C=C/c1ccc2c(c1)nc(CCc1ccccc1)n2CCN1CCCCC1)NO"
assayresult = "1.5 h"

